// compounds with pIC50 on PASK (Invitrogen) (Homo sapiens, UniProt Q96RG2), multi-source literature
pIC50: −log10 of the molar value.

// below: answered compounds
>  <Sample smiles>
Cc1cc2cc(-c3nc4ccc(-c5nnn[nH]5)cc4nc3N(C)C(C)C)ccc2[nH]1

>  <Endpoint value>
≥ 5.00

$$$$
>  <Sample smiles>
CN(c1nc2cc(C(=O)O)ccc2nc1-c1ccc(F)cc1)C1CCOCC1

>  <Endpoint value>
> 5.00

$$$$
>  <Sample smiles>
N#Cc1cc(-c2cc(=O)n3ncc(-c4ncco4)c3[nH]2)ccc1O

>  <Endpoint value>
≥ 5.00

$$$$
>  <Sample smiles>
Cc1csc(-c2cnn3c(=O)cc(-c4ccc(Cl)cc4)[nH]c23)n1

>  <Endpoint value>
≥ 5.00

$$$$
>  <Sample smiles>
COc1cc(-c2cc(=O)n3ncc(-c4nc5ccccc5s4)c3[nH]2)ccc1Cl

>  <Endpoint value>
≥ 5.00

$$$$
>  <Sample smiles>
Nc1nn2c(=O)cc(-c3ccc4c(c3)OCO4)[nH]c2c1-c1ccccn1

>  <Endpoint value>
≥ 5.00

$$$$
>  <Sample smiles>
Cc1nc2[nH]c(-c3ccc4[nH]ncc4c3)cc(=O)n2n1

>  <Endpoint value>
≥ 5.00

$$$$
>  <Sample smiles>
C[C@H]1CCCN1c1nc2cc(C(=O)O)ccc2nc1-c1ccoc1

>  <Endpoint value>
> 5.00

$$$$

Data request: # pIC50 lookup, item COc1c(-c2cc(=O)n3nc(O)c(-c4ccccn4)c3[nH]2)ccc2[nH]nnc12
Data returned: ≥ 5.00

Data request: // next record COc1ccc2c(c1)CCc1c-2[nH]c2c(-c3ccccn3)cnn2c1=O
Data returned: ≥ 5.00

Data request: // next record C[C@H]1CCCN1c1nc2cc(C(=O)O)c(O)cc2nc1-c1ccc(F)cc1
Data returned: > 5.00

Data request: // next record CC(C)n1ncc2cc(-c3cc(=O)n4ncc(-c5ccnn5C)c4[nH]3)ccc21
Data returned: ≥ 5.00

Data request: // next record COc1ccc(Cc2nn3c(=O)cc(C)[nH]c3c2-c2ccccc2)cc1
Data returned: ≤ 5.00

Data request: // next record CC(C)N(C)c1nc2cc(C(=O)O)ccc2nc1-c1ccc2c(c1)CCCO2
Data returned: > 5.00

Data request: // next record Cc1nn2c(=O)cc(-c3ccc([N+](=O)[O-])cc3)[nH]c2c1-c1ccc(Cl)cc1
Data returned: ≥ 5.00

Data request: // next record Cn1nnc2cc(-c3cc(=O)n4ncc(-c5ccccn5)c4[nH]3)ccc21
Data returned: ≥ 5.00

Data request: // next record CCCNC(=O)c1cnn2c(=O)cc(-c3ccc4c(c3)OCCO4)[nH]c12
Data returned: ≥ 5.00

Data request: // next record O=c1cc(-c2ccc3[nH]nnc3c2)[nH]c2c(-c3cccnc3)cnn12
Data returned: ≥ 5.00

Data request: // next record Cc1ccccc1-c1nc2[nH]c(-c3ccc4nn[nH]c4c3)cc(=O)n2n1
Data returned: ≥ 5.00

Data request: // next record Cc1noc(-c2cnn3c(=O)cc(-c4ccc5c(c4)OCCO5)[nH]c23)n1
Data returned: ≥ 5.00

Data request: // next record CCn1ncc2cc(-c3cc(=O)n4ncc(-c5ncco5)c4[nH]3)ccc21
Data returned: ≥ 5.00

====

// compounds with pIC50 on PASK (Invitrogen) (Homo sapiens), multi-source literature
pIC50: −log10 of the molar value.

// below: answered compounds
>  <Sample smiles>
CNC(=O)c1nc2[nH]c(-c3ccc4[nH]nnc4c3)cc(=O)n2n1

>  <Tested on>
PASK (Invitrogen) (Homo sapiens)

>  <Measured quantity>
pIC50

>  <Endpoint value>
≥ 5.00

$$$$
>  <Sample smiles>
Cc1cc2cc(-c3nc4ccc(C(=O)O)cc4nc3N3CCC[C@@H]3C)ccc2[nH]1

>  <Tested on>
PASK (Invitrogen) (Homo sapiens)

>  <Measured quantity>
pIC50

>  <Endpoint value>
> 5.00

$$$$
>  <Sample smiles>
CN(c1nc2cc(C(=O)O)ccc2nc1-c1ccc2[nH]ncc2c1)C1CC1

>  <Tested on>
PASK (Invitrogen) (Homo sapiens)

>  <Measured quantity>
pIC50

>  <Endpoint value>
> 5.00

$$$$
>  <Sample smiles>
Cn1nnc2cc(-c3cc(=O)n4nc(N)c(-c5ccccn5)c4[nH]3)ccc21

>  <Tested on>
PASK (Invitrogen) (Homo sapiens)

>  <Measured quantity>
pIC50

>  <Endpoint value>
≥ 5.00

$$$$
>  <Sample smiles>
CC(=O)Nc1nn2c(=O)cc(-c3ccc4[nH]nnc4c3)[nH]c2c1-c1ccccn1

>  <Tested on>
PASK (Invitrogen) (Homo sapiens)

>  <Measured quantity>
pIC50

>  <Endpoint value>
≥ 5.00

$$$$
>  <Sample smiles>
CCN(c1nc2cc(C(=O)O)ccc2nc1-c1ccc(F)cc1)C1CCCCC1

>  <Tested on>
PASK (Invitrogen) (Homo sapiens)

>  <Measured quantity>
pIC50

>  <Endpoint value>
> 5.00

$$$$
>  <Sample smiles>
Cc1noc(-c2cnn3c(=O)cc(-c4ccc(Cl)c(OCC(F)(F)F)c4)[nH]c23)n1

>  <Tested on>
PASK (Invitrogen) (Homo sapiens)

>  <Measured quantity>
pIC50

>  <Endpoint value>
≥ 5.00

$$$$

Consider the additional compound presented here.
Data request: # pIC50 lookup, item N#Cc1ccc(-c2cc(=O)n3ncc(-c4ccccn4)c3[nH]2)cc1
Data returned: ≥ 5.00
